assay: Half life in ICR mouse at 100 mg/kg, sc measured upto 24 hrs by LC-MS analysis; type: ADME, organism-based; conditions: in vivo

Substance smiles	Uom	half-life
CNc1cc(F)cc2c(O)c(C(=O)Nc3ccc(C(=O)O)cc3)c(=O)[nH]c12	h	6.79

* * *

tested on: Enterococcus; test: Antibacterial activity against Vancomycin-resistant Enterococcus by CLSI method; assay type: functional
Each record here notes measured log10(MIC50).
Recorded metric: log10(MIC50) (log10 of the value in µg/mL)

Substance smiles	log10(MIC50)
C[C@H]1COc2c(N3CCN(C)CC3)c(F)cc3c(=O)c(C(=O)O)cn1c23.C[C@H]1COc2c(N3CCN(C)CC3)c(F)cc3c(=O)c(C(=O)O)cn1c23.O	0.90
CCCCCCCCCC(=O)N[C@@H](Cc1c[nH]c2ccccc12)C(=O)N[C@H](CC(N)=O)C(=O)N[C@@H](CC(=O)O)C(=O)N[C@@H]1C(=O)NCC(=O)N[C@@H](CCCN)C(=O)N[C@@H](CC(=O)O)C(=O)N[C@H](C)C(=O)N[C@@H](CC(=O)O)C(=O)NCC(=O)N[C@H](CO)C(=O)N[C@@H]([C@H](C)CC(=O)O)C(=O)N[C@@H](CC(=O)c2ccccc2N)C(=O)O[C@@H]1C	0.30
CN(C)c1cc(NC(=O)CNC(C)(C)C)c(O)c2c1C[C@H]1C[C@H]3[C@H](N(C)C)C(O)=C(C(N)=O)C(=O)[C@@]3(O)C(O)=C1C2=O	-0.60
CNc1cc(F)cc2c(O)c(C(=O)Nc3ccc(C(=O)O)cc3)c(=O)[nH]c12	-2.10
CC(=O)NC[C@H]1CN(c2ccc(N3CCOCC3)c(F)c2)C(=O)O1	0.60

* * *

target: DNA gyrase (Escherichia coli, UniProt P0AES4+P0AES6); assay: Inhibition of Escherichia coli DNA gyrase by measuring supercoiling activity incubated for 60 mins by fluorescence based assay

Substance smiles	Uom	IC50
CNc1cc(F)cc2cc(C(=O)Nc3ccc(C(=O)NCCN4CCOCC4)cc3)c(=O)[nH]c12	nM	7.29
CNc1cc(F)cc2cc(C(=O)Nc3cnc(C(=O)O)nc3)c(=O)[nH]c12	nM	0.95
CNc1cc(F)cc2cc(C(=O)Nc3ccc(C(=O)O)cc3CN(C)C3CCCCC3)c(=O)[nH]c12.Cl	nM	0.53
CNc1cc(F)cc2c(NCCN3CCOCC3)c(C(=O)Nc3ccc(C(=O)O)cc3)c(=O)[nH]c12.O=CO	nM	14.6
CNc1cc(F)cc2cc(C(=O)Nc3ccc(C(=O)O)cc3CN(CC(=O)O)C3CCCCC3)c(=O)[nH]c12	nM	0.57
CNc1cc(F)cc2cc(C(=O)Nc3ccc(CO)cc3CN(CCO)C3CCCCC3)c(=O)[nH]c12	nM	1.6
CNc1cc(F)cc2cc(C(=O)Nc3ccc(CO)cc3CN(C)C3CCCCC3)c(=O)[nH]c12	nM	1.92
CNc1cc(F)cc2c(NCC3CNC3)c(C(=O)Nc3ccc(C(=O)O)cc3)c(=O)[nH]c12.O=CO	nM	0.66
CNc1cc(F)cc2c(NCCCN)c(C(=O)Nc3ccc(C(=O)O)cc3)c(=O)[nH]c12.O=CO	nM	0.52
CCCCCN(C)Cc1cc(C(=O)O)ccc1NC(=O)c1cc2cc(F)cc(NC)c2[nH]c1=O	nM	0.21
CNc1cc(F)cc2c(O)c(C(=O)Nc3ccc(C(=O)O)cc3CN3CCCCC3)c(=O)[nH]c12.O=C(O)C(F)(F)F	nM	7.53
CNCCCc1c(C(=O)Nc2ccc(C(=O)O)cc2)c(=O)[nH]c2c(NC)cc(F)cc12.O=C(O)C(F)(F)F	nM	131
CCCCCN(CCCCC)Cc1cc(C(=O)O)ccc1NC(=O)c1cc2cc(F)cc(NC)c2[nH]c1=O	nM	0.8
CNc1cc(F)cc2c(O)c(C(=O)Nc3ccc(C(=O)NS(=O)(=O)N(C)C)cc3)c(=O)[nH]c12	nM	2.66
CNc1cc(F)cc2cc(C(=O)Nc3ccc(C(=O)N(C)CCN4CCOCC4)cc3)c(=O)[nH]c12	nM	6.36
CNc1cc(F)cc2cc(C(=O)Nc3ccc(C(=O)O)c(O)c3)c(=O)[nH]c12	nM	2.05
CNc1cc(F)cc2cc(C(=O)Nc3ccc(C(=O)O)cc3CN(C)C3CC3)c(=O)[nH]c12	nM	0.6
CNc1cc(F)cc2cc(C(=O)Nc3ccc(C(=O)O)cc3CN(CCO)C3CCCCC3)c(=O)[nH]c12.Cl	nM	0.29
CNc1cc(F)cc2c(O)c(C(=O)Nc3ccc(C(=O)NS(=O)(=O)N(C)C)cc3CN3CCCCC3)c(=O)[nH]c12	nM	4.44
CNc1cc(F)cc2cc(C(=O)Nc3ccc(C(=O)O)cc3CNCCO)c(=O)[nH]c12.Cl	nM	129
CNc1cc(F)cc2c(NCC3(N)CCC3)c(C(=O)Nc3ccc(C(=O)O)cc3)c(=O)[nH]c12.O=CO	nM	2.15
CNc1cc(F)cc2cc(C(=O)Nc3ccc(C(N)=O)cc3CN(C)C3CCCCC3)c(=O)[nH]c12	nM	2.48
CNc1cc(F)cc2cc(C(=O)Nc3ccc(C(=O)O)cc3CN3CCCCC3)c(=O)[nH]c12	nM	0.31
CNCCc1c(C(=O)Nc2ccc(C(=O)O)cc2)c(=O)[nH]c2c(NC)cc(F)cc12.O=C(O)C(F)(F)F	nM	109
CNc1cc(F)cc2cc(C(=O)Nc3ccc(C(=O)NCCN)cc3)c(=O)[nH]c12.Cl	nM	9.4
CNc1cc(F)cc2cc(C(=O)Nc3ccc(C(=O)O)cc3CNC3CCCCC3)c(=O)[nH]c12.O=C(O)C(F)(F)F	nM	0.26

All figures here come from ChEMBL document CHEMBL4699558.
